Source of measurements: PubChem BioAssay (NCATS)

Assay: HEK293 18hr Apoptosis Induction qHTS against the NCATS CANVASS Library (AID 1347357)
Conditions: HEK293 caspase-3/7 Caspase-Glo luminescence; series mostly up to 46.1 µM
Records with an inconclusive call do not appear. Activity calls are given as the source filed them. The call rests on the fitted dose curve; in most records, active means well fitted activation curve with a large enough effect; inconclusive means small, poorly fitted or top-dose-only effect; inactive means flat fitted curve, though single readings scatter.
The categories you may choose from are active, inactive

What did the test return for C[C@@H]1C(=O)[C@]23CC[C@H]1C[C@]21O[C@H]2C(C)(C)C=CC(=O)[C@]23COC1=O ? inactive

Give the logged outcome of this assay for the following compound: CN1C(=O)[C@]23SS[C@@]1(C)C(=O)N2[C@H]1Nc2ccccc2[C@]1(c1c[nH]c2ccccc12)[C@@H]3O active

Entry CN1C(=O)C2C(N=CN2C)N(C)C1=O (configuration not stated) : call = ? inactive

State the result this test recorded for CCCCCCCCCCCCCCCC(=O)OC/C=C(\C)CCCC(C)CC(C)C(C)C (configuration not stated) . inactive

Write down the call the test reported for this compound. Item: O=C1c2c(O)cc(O)cc2O[C@@H](c2ccc(O)cc2)[C@@H]1c1c(O)cc(O)c2c(=O)cc(-c3ccc(O)c(O)c3)oc12 inactive

Would you mind telling me which call this test gave CO[C@@H]1[C@H](O)[C@@H](C)O[C@@H](OC[C@H]2/C=C/C=C/C(=O)C(C)C[C@H](C)C(O[C@@H]3O[C@H](C)CC4(OC(=O)O[C@@H]4C)C3O)[C@@H](C)/C=C/C(=O)OC2C)[C@@H]1OC (some centres not stated) ? inactive

Recorded test outcome, item O=c1cc(-c2ccc(O)c(O[C@@H]3O[C@H](CO)[C@@H](O)[C@H](O)[C@H]3O)c2)oc2cc(O[C@@H]3O[C@H](CO)[C@@H](O)[C@H](O)[C@H]3O)cc(O)c12 inactive

* * *

Could you please report measured activity change, negative = inhibition for the items listed next?
Target: Rap guanine nucleotide exchange factor 4 (Homo sapiens)
Test: Confirmatory qHTS for antagonist of cAMP-regulated guanine nucleotide exchange factor 4 (EPAC2) (AID 1645885); further: on the % scale 0 is the no-effect control and ±100 the full control effect; nearly all actives have a fitted effect of over 25% in size
Conditions: EPAC2 Rap1B-BODIPY-GDP exchange fluorescence, biochemical; series mostly up to 114 µM
Results filed as inconclusive are left out. Activity calls are given as the source filed them. Calls follow the shape of the dose curve; as a rule, active = well fitted inhibition curve with a large enough effect; inconclusive = small, poorly fitted or top-dose-only effect; inactive = no such curve, though single readings can be large or run the other way.

activity change, negative = inhibition for O=C(O)CCc1ccc(-c2ccc(Cl)cc2)n1-c1cccc(C(F)(F)F)c1 ? 25.6% [at 12.7 µM] (inactive)

Look up activity change, negative = inhibition: CCCCC1=CC2=CC(=O)C(C)(OC(=O)CCc3ccccc3)C(=O)C2=CO1 (centres undefined) 20.8% [at 12.7 µM] (inactive)

Reported activity change, negative = inhibition, compound N#C/C(=C\c1ccc(-c2ccc(Cl)c(C(=O)O)c2)o1)c1nc2ccccc2[nH]1 : ____ -25.6% [at 12.7 µM] (inactive)

Requested read-out: activity change, negative = inhibition. Entry: O=C(Nc1ccccc1C(=O)OCc1cc(=O)n2c3c(sc2n1)CCCC3)c1ccc(F)cc1 -5.61% [at 12.7 µM] (inactive)

* * *

Assay: KB-8-5-11 Cancer Cell Toxicity qHTS against the NCATS CANVASS Library (AID 1347364); further: nearly all actives have a fitted effect of over 75% in size
Details: KB-8-5-11 MDR cells viability, CellTiter-Glo, 72 h; series mostly up to 46.1 µM
Records with an inconclusive call do not appear. Calls of active or inactive are those of the source. Calls come from the whole dose curve; as a rule, active = well fitted cell-killing curve with a large enough effect; inconclusive = small, poorly fitted or top-dose-only effect; inactive = flat fitted curve, though single readings scatter.
Your reply should match one of these outcome classes. active, inactive

Please share the test call associated with CO[C@@H]1[C@H](O)[C@@H](C)O[C@@H](OC[C@@H]2C(C)OC(=O)/C=C/[C@H](C)C(O[C@@H]3O[C@H](C)CC4(OC(=O)O[C@@H]4C)C3O)[C@@H](C)CC(C)C(=O)CC[C@H]3OC23)[C@@H]1OC (some centres undefined) . inactive

Please state the recorded outcome for this molecule: CC1=CC2=C[C@H](C)C[C@@]23OC(=C(C)C3=O)CC(C)(C)/C=C/C1=O active

# lookup: test call for C=C[C@]1(C)CC[C@@H]([C@H](C)C(=O)/C=C/C(C)C)O1 inactive

Which outcome was entered for the molecule C[C@@H]1C(=O)[C@]23CC[C@H]1C[C@]21O[C@H]2C(C)(C)C=CC(=O)[C@@]23COC1=O in this test? inactive
